Every entry's value here was drawn from patent US11230526B1.

Assignment: determine reported C57 IPGTT, Dose Response Results for the given compounds.
System: C57bl/6J Mice
Experiment: GPR120 C57bl6 mouse IPGTT
Type: in vivo
Conditions: 10 mg/kg; male C57bl/6J mice; dosed 30 minutes prior to glucose (IP) 1.5 g/kg
Procedure: Male, C57bl/6J Mice were ordered in at 8 weeks of age from Jackson Labs. Individual mice weighed anywhere in the range of 25-30 grams on study day. The mice were fasted, with removal of food occurring at 7 am on the morning of the study. […] All groups were dosed 30 minutes prior to glucose administration at a dose volume of 10 ml/kg (the dose volume was calculated separately for each individual animal). […] The exact dose volume for glucose was also calculated separately for each individual animal. […]
Reply with just the number (in %).

**Query** What does the data say about its C57 IPGTT, Dose Response Results? Entry: CCc1ccc(C2=C(COc3ccc(CCC(=O)O)c(C)c3C)CCC2)cc1 [Compound 27]
**Result** 37

**Query** C57 IPGTT, Dose Response Results for Cc1ccc(C2=C(COc3ccc(CCC(=O)O)c(C)c3C)CCC2)cc1 [Compound 52] ?
**Result** 30

**Query** Quick one: C57 IPGTT, Dose Response Results of Cc1cc(CCC(=O)O)ccc1OCC1=C(c2ccc(Cl)cc2)CCCC1 [Compound 483] ?
**Result** 51

**Query** I would be grateful if you could share the reported C57 IPGTT, Dose Response Results for Cc1ccc(C2=C(COc3ccc(CCC(=O)O)c(C)c3C)CCC2)cn1 [Compound 85] .
**Result** 19

**Query** I'd like to know its C57 IPGTT, Dose Response Results. The compound in question is Cc1cc(CCC(=O)O)ccc1OCC1=C(c2ccc(Cl)cc2)CCC1 [Compound 62]
**Result** 56

**Query** Quick one: C57 IPGTT, Dose Response Results of Cc1ccc(C2=C(COc3ccc(CCC(=O)O)c(C)c3C)CCC2)cc1F [Compound 80] ?
**Result** 55

**Query** Any idea what C57 IPGTT, Dose Response Results was measured for CCc1ccc(C2=C(COc3ccc(CCC(=O)O)c(F)c3F)CCC2)cc1 [Compound 25] ?
**Result** 22

----------
Provide the reported log10 of EC50 of each item.
Molecular target: human GPR40 (Homo sapiens, UniProt O14842)
Sequence (O14842 whole entry): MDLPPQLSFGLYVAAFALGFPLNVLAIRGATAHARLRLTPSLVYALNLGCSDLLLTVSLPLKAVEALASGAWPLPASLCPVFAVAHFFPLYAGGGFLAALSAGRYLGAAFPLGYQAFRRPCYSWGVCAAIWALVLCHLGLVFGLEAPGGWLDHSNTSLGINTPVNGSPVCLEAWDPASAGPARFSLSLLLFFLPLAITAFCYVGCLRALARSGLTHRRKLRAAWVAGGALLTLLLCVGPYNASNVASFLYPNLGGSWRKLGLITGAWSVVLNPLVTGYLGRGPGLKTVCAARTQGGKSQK
Assay: GPR40 calcium flux assay, human GPR40
Settings: HEK293 cells stably expressing GPR40; table does not say human or rat
Short version: log10 scale, EC50, nM.

**Query** Return reported log10 of EC50; argument: O=C(O)CCc1ccc(OCC2=C(c3ccc(OC(F)(F)F)cc3)CCC2)cc1Cl [Compound 311]
**Result** 2.90

**Query** Which log10 of EC50 value belongs to O=C(O)CCc1ccc(OCC2=C(C3=CCCCC3)CCC2)cc1C(F)(F)F [Compound 354] ?
**Result** 2.92

**Query** What value of measured log10 of EC50 is listed for Cc1cc(CCC(=O)O)ccc1OCC1=C(c2cnn(C)c2)CCC(F)(F)C1 [Compound 546] ?
**Result** 3.37

**Query** log10 of EC50 for O=C(O)CCc1ccc(OCC2=C(C3CCCC3)CCC2)cc1Br [Compound 421] ?
**Result** 1.40

**Query** I'd like to know its log10 of EC50. The compound in question is O=C(O)CCc1ccc(OCC2=C(c3cccc(F)c3)CCC2)cc1C(F)(F)F [Compound 263]
**Result** 2.13

----------
Molecular target: Human GPR120 short form (Homo sapiens)
Construct: expressed in transfected cells
Sequence (Q5NUL3 whole entry): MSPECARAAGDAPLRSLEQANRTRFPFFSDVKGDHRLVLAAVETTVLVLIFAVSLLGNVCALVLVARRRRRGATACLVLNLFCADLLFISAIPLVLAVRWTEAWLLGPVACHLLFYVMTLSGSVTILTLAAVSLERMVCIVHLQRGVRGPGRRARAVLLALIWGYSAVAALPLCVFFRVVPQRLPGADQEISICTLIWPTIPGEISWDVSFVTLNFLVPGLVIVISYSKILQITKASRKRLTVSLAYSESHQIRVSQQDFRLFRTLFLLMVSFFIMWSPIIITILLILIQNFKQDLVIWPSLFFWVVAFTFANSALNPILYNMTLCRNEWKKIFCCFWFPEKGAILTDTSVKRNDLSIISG
Assay: Human GPR120 calcium flux assay, Procedure Calcium B (4200 cells/well)
Assay type: cell-based
Values of EC50 strictly less than 200 nM map to Criterion met, and values of at least 200 nM map to Criterion not met.

**Query** Hello, is EC50 of the following compound strictly smaller than 200 nM? Cc1cc(Cl)ccc1C1=C(COc2ccc(CCC(=O)O)c(C(F)(F)F)c2)CCC1
**Result** Criterion not met

**Query** Criterion: EC50 strictly below 200 nM. Is it met by Cc1c(CCC(=O)O)ccc(OCC2=C(c3ccc(Cl)s3)CCC(F)(F)C2)c1C ?
**Result** Criterion met

**Query** Lab note: EC50 threshold 200 nM. Does this compound come in strictly under it? O=C(O)CCc1c(F)c(F)c(OCC2=C(c3ccc(Cl)cc3)CCC2)c(F)c1F
**Result** Criterion not met

**Query** Check if EC50 falls below 200 nM for COC1CC(COc2ccc(CCC(=O)O)c(C)c2C)=C(c2ccc(Cl)cc2)C1 (centres unmarked) .
**Result** Criterion met

**Query** Given Cc1cc(CCC(=O)O)ccc1OCC1=C(c2ccccc2)CC(F)(F)C1 , is recorded EC50 strictly lower than 200 nM?
**Result** Criterion met

**Query** Threshold test, EC50 < 200 nM: O=C(O)CCc1ccc(OCC2=C(c3ccc(Cl)cc3)CCC(F)(F)C2)c(F)c1F
**Result** Criterion met

**Query** API: query returns whether the compound falls strictly under 200 nM in EC50. Query: O=C(O)CCc1ccc(OCC2=C(c3ccc(Cl)cc3)CCC2)cc1 [Compound 107]
**Result** Criterion not met

**Query** Dear reviewer, please state whether CC(C)c1cc(OCC2=C(c3ccc(Cl)cc3)CCC2)ccc1CCC(=O)O has EC50 strictly beneath 200 nM.
**Result** Criterion not met

----------
Target: Human GPR120 short form (Homo sapiens)
Construct: expressed in transfected cells
Assay: Human GPR120 calcium flux assay, Procedure Calcium B (4200 cells/well)
Type: cell-based
pEC50: −log10 of the molar value.
Quick rule: pEC50 of at least 6 means criterion met, below that means criterion not met.

**Query** Determine whether measured pEC50 meets or exceeds 6 for Cc1c(CCC(=O)O)ccc(OCC2=C(C3CCCC3)CCC2)c1F [Compound 431]
**Result** criterion met

**Query** Tell me whether pEC50 is at least 6 here: CCC1CCC(c2ccc(Cl)cc2)=C(COc2ccc(CCC(=O)O)c(C)c2C)C1 (centres unmarked) [Compound 502]
**Result** criterion met

**Query** Check if pEC50 >= 6 (inclusive). Item: Cc1cc(OCC2=C(c3ccc(Cl)c(F)c3)CCC2)c(F)cc1CCC(=O)O [Compound 280]
**Result** criterion met

**Query** Say whether Cc1ccc(CC2=C(COc3ccc(CCC(=O)O)c(Cl)c3)CCC2)cc1 [Compound 348] shows pEC50 of 6 or more.
**Result** criterion not met

----------
Biological target: short form of the GPR120 receptor (Homo sapiens, UniProt Q5NUL3)
Construct: host or cells: PathHunter CHO-K1 GPR120S β-Arrestin Cell Line
Sequence (P32121 whole entry partner, one chain of several): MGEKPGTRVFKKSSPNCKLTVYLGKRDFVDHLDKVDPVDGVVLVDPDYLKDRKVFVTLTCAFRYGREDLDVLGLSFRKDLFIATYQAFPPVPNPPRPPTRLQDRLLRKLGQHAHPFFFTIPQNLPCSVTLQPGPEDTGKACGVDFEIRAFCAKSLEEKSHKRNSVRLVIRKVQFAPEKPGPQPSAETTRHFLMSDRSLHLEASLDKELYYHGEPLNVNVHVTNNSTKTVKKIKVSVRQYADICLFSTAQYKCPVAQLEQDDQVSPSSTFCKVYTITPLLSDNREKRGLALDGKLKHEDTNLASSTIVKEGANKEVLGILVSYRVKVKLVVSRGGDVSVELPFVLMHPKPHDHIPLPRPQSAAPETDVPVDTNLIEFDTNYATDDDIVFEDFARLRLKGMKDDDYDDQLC
Assay: Human GPR120 DiscoveRx PathHunter Beta-Arrestin assay, Procedure β-arrestin B
Format: cell-based
Endpoint: log10 of EC50 (log10 of the value in nM)
Heads up, the numbers here are log10 of EC50 in nM units.

**Query** Given the compound Cc1c(CCC(=O)O)ccc(OCC2=C(c3cccnc3)CCC2)c1C [Compound 108] , what is its reported log10 of EC50?
**Result** 2.91

**Query** So what's the measured log10 of EC50 for this one? Cc1c(CCC(=O)O)ccc(OCC2=C(c3cccc(Cl)c3)CCC2)c1C [Compound 58]
**Result** 2.44

**Query** Look at this compound and give its reported log10 of EC50. O=C(O)CCc1ccc(OCC2=C(c3ccc(Cl)cc3)CCCC2)c(F)c1 [Compound 511]
**Result** 2.27

**Query** Sample Cc1ccc(C2=C(COc3c(F)cc(CCC(=O)O)cc3F)CCC2)cc1[N+](=O)[O-] [Compound 109] — what was its log10 of EC50?
**Result** 3.39

**Query** Using the record for O=C(O)CCc1cc(F)c(OCC2=C(c3ccc(Cl)cc3)CCC2C(F)(F)F)c(F)c1 (stereo not drawn) [Compound 33] , report its log10 of EC50.
**Result** 2.26

**Query** Given the entry CCc1ccc(C2=C(COc3ccc(CCC(=O)O)c(C)c3C)CCC2)cc1 [Compound 27] , report its measured log10 of EC50.
**Result** 1.89

**Query** Given Cc1c(CCC(=O)O)ccc(OCC2=C(c3ccccc3)CCC2)c1C [Compound 23] , state its recorded log10 of EC50.
**Result** 2.53

**Query** Would you kindly share the measured log10 of EC50 for O=C(O)CCc1cc(F)c(OCC2=C(c3ccc(Cl)cc3)CCCC2)c(F)c1 [Compound 510] ?
**Result** 2.32

**Query** Need log10 of EC50 of Cc1ccc(C2=C(COc3ccc(CCC(=O)O)c(F)c3F)CCC2)cc1 [Compound 94] , thanks.
**Result** 1.67

----------
Can you tell me pEC50 for the items I'm about to list?
Target: Human GPR120 short form (Homo sapiens)
Construct: expressed in transfected cells
Assay: Human GPR120 calcium flux assay, Procedure Calcium B (4200 cells/well)
Type: cell-based
The read-out pEC50 is expressed as -log10 of concentration in moles per litre.

**Query** Form field - read-out: pEC50; system: Human GPR120 short form (Homo sapiens); submitted item: Cc1cc(CCC(=O)O)cc(Cl)c1OCC1=C(c2ccc(F)cc2)CC(F)(F)C1
**Result** 5.98

**Query** Lab request: please report pEC50 under test system Human GPR120 short form (Homo sapiens) for Cc1c(CCC(=O)O)ccc(OCC2=C(c3ccc(F)c(F)c3)CCC(F)(F)C2)c1C
**Result** 6.93

**Query** Tell me reported pEC50 for CCCCC1=C(COc2ccc(CCC(=O)O)cc2)CCCC1 , tested with Human GPR120 short form (Homo sapiens).
**Result** 5.95

**Query** Give Human GPR120 short form (Homo sapiens) pEC50 for O=C(O)CCc1ccc(OCC2=C(c3ccc(Cl)cc3)CCC2)c(I)c1
**Result** 7.47

**Query** Please state recorded pEC50 (tested on Human GPR120 short form (Homo sapiens)) of O=C(O)CCc1ccc(OCC2=C(C3CCCC3)CC(F)(F)C2)cc1C(F)(F)F
**Result** 6.82

**Query** Item Cc1c(CCC(=O)O)ccc(OCC2=C(c3ccccn3)CCC2)c1C with Human GPR120 short form (Homo sapiens) - pEC50?
**Result** 6.47

**Query** What reported pEC50 corresponds to Cc1cc(CC(C)C(=O)O)ccc1OCC1=C(c2ccc(F)cc2)CCC1 (stereo not drawn) on Human GPR120 short form (Homo sapiens)?
**Result** 6.67

**Query** Any idea what pEC50 came out for O=C(O)CCc1ccc(OCC2=C(Cc3ccc(F)cc3)CCC2)cc1C(F)(F)F on Human GPR120 short form (Homo sapiens)?
**Result** 5.88

**Query** Give Human GPR120 short form (Homo sapiens) pEC50 for O=C(O)CCc1ccc(OCC2=C(c3ccc(F)cc3)CC(F)(F)C2)cc1
**Result** 6.91

**Query** Kindly state the measured pEC50 obtained for O=C(O)CCc1cc(F)c(OCC2=C(c3ccc(F)c(F)c3)CCC(F)(F)C2)c(F)c1 with Human GPR120 short form (Homo sapiens).
**Result** 6.51

**Query** Find the measured pEC50: item O=C(O)CCc1ccc(OCC2=C(C3CCC4CC43)CCC2)cc1 (stereo not drawn) , target or system Human GPR120 short form (Homo sapiens).
**Result** 6.47

**Query** Kindly state the measured pEC50 obtained for Cc1c(CCC(=O)O)ccc(OCC2=C(C3CCC(F)(F)CC3)CCC2)c1C with Human GPR120 short form (Homo sapiens).
**Result** 5.74

**Query** Which measured pEC50 belongs to O=C(O)CCc1ccc(OCC2=C(c3ccccc3)CCC2)cc1 , tested on Human GPR120 short form (Homo sapiens)?
**Result** 6.22

**Query** Please state recorded pEC50 (tested on Human GPR120 short form (Homo sapiens)) of O=C(O)CCc1ccc(OCC2=C(Cc3ccccc3)CCCC2)cc1Cl
**Result** 5.92

**Query** Lab request: please report pEC50 under test system Human GPR120 short form (Homo sapiens) for Cc1cc(OCC2=C(c3ccc(Cl)cc3C)CCC2)c(F)cc1CCC(=O)O
**Result** 5.54

**Query** Please tell me: pEC50 of Cc1cc(OCC2=C(c3ccc(F)cc3)CC(F)(F)C2)c(F)cc1CCC(=O)O , system Human GPR120 short form (Homo sapiens)?
**Result** 6.56

**Query** Kindly state the measured pEC50 obtained for CC(C)c1cc(OCC2=C(C3CCCC3)CCC2)ccc1CCC(=O)O with Human GPR120 short form (Homo sapiens).
**Result** 6.00
